FYI, the data here is from ChEMBL document CHEMBL5046251.

assaySystem: UniProtKB P43251
Sequence (P43251 whole entry): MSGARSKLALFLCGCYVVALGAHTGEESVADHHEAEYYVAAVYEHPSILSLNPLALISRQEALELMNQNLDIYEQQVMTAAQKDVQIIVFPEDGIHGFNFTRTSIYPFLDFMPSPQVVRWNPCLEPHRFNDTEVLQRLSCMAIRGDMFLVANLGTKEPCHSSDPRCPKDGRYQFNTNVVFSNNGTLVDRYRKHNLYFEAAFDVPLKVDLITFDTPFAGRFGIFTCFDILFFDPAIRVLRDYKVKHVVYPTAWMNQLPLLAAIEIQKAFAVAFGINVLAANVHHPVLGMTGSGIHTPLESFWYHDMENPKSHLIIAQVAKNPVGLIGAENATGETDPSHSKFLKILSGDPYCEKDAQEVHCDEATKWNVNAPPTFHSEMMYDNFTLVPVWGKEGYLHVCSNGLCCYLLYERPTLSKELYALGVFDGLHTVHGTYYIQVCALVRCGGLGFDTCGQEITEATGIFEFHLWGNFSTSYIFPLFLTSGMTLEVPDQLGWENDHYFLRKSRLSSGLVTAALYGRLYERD
methodDescription: Inhibition of N-terminal FLAG/His6-tagged human biotinidase expressed in COS cells using biotinyl-7-amino-4-trifluoromethylcoumarin as substrate preincubated for 10 mins followed by substrate addition and measured after 90 mins
Assay type: cell-based
testReadout: log10 of IC50 (log10 of the value in µM)
Response schema: value (number) is log10 of IC50 in units of µM.

Consider the reported log10 of IC50 for these molecules:
[[record]]
smilestext = "CC(C)(Nc1ncc(C(=O)N2CCC3(CCOCC3)C2)cn1)c1cnccn1"
assaysystem = "UniProtKB P43251"
number = 0.56

[[record]]
smilestext = "O=C(c1cnc(NC2(c3cncnc3)CC2)nc1)N1CCCCC1"
assaysystem = "UniProtKB P43251"
number = 1.26

[[record]]
smilestext = "O=C(c1cnc(NCc2cncnc2)nc1)N1CCC2(CCOCC2)C1"
assaysystem = "UniProtKB P43251"
number = 1.04


Hi! Can you tell me log10 of IC50 for each of these molecules?
1. CS(=O)(=O)[C@@H]1CCCN(C(=O)c2cnc(NC3(c4cncnc4)CC3)nc2)C1
2. O=C(c1cnc(NC2(c3cncnc3)CC2)nc1)N1CCC2(CCOCC2)C1

1: 1.79; 2: 0.01
